Quick list: IC50 per entry.
Tested on: OVCAR3 cells
measurement.protocol: Cell proliferation activity test (CyQUANT Direct)
Type: cell-based
experimental.conditions: 3 days, 0.2% DMSO, CyQUANT fluorescence
Just the number in nM, nothing appended.

// lookup IC50 | system=OVCAR3 cells | key= Cc1cc2nc(n1)N1CCC(F)(F)C(C=CCC3CCN(CC3)c3cc(NS(C)(=O)=O)c4c(c3C(=O)N2)CCC4=O)C1 (stereo not drawn) [Example 19] 52

Query the reported IC50 for OVCAR3 cells; item: Cc1cc2nc(n1)N1CCC(F)(F)C(C=CCC3CCN(CC3)c3cc(NS(=O)(=O)CCO)c4c(c3C(=O)N2)CCC4=O)C1 (single isomer, unassigned) [Example 2C] 25

Lookup: IC50 / OVCAR3 cells / Cc1cc2nc(n1)N1CCC(F)(F)C(C=CCC3CCN(CC3)c3cc(NS(=O)(=O)CCO)c4c(c3C(=O)N2)CCC4=O)C1 (single isomer, unassigned) [Example 2A] 8
